Endpoint Label: melting point

The following compounds have reported results that may help.
[[record]]
item_smiles = "CCN1C(=O)C(C)(C)C(=O)N(C)c2cc(CN(CCn3ccc4oc(C)cc4c3=O)Cc3ncoc3C)ccc21"
endpoint_label = "melting point"
endpoint_result = "129 to 130 °C"

[[record]]
item_smiles = "CC(C)(C)c1cc(CCC(=O)NNC(=O)C=Cc2ccccc2)cc(C(C)(C)C)c1O"
endpoint_label = "melting point"
endpoint_result = "224 to 225 °C"

[[record]]
item_smiles = "Cc1c(-c2ccccc2)oc2c(SCCCCCl)cccc2c1=O"
endpoint_label = "melting point"
endpoint_result = "81 to 84 °C"


Can you look up the measured melting point of "CN1Cc2c(C(N)=S)ncn2-c2ccccc2C1=O" for me?
295 to 297 °C

Can you look up the measured melting point of "CP(C)(=O)CCCOC(=O)c1cccnc1Nc1cccc(C(F)(F)F)c1" for me?
165 °C

* * *

Endpoint Label: melting point

The following molecules have reported results that may help.
[[record]]
molecule = "COc1cc(C(=O)O)ccc1Cc1cn(C)c2ccc(C(=O)NC[C@H](C)CC(F)(F)F)cc12"
endpoint_result = "218 to 223 °C"

[[record]]
molecule = "CC1=C(C(=O)c2ccc3c(c2)CCN(C(N)=O)C3)C(C)(C)CCC1"
endpoint_result = "86.4 to 87.6 °C"

[[record]]
molecule = "CCCCS(=O)(=O)NC(=O)C[C@H]1O[C@H](c2cccc(OC)c2OC)c2cc(Cl)ccc2N(CC(C)(C)CO)C1=O"
endpoint_result = "123 to 125 °C"

[[record]]
molecule = "COC(=O)CCC(=O)c1ccc(C)cc1O"
endpoint_result = "61 to 63 °C"

[[record]]
molecule = "COc1ccc(CC(=O)Nc2nc3c(ncn3C3CC(O)C(COC(c4ccccc4)(c4ccc(OC)cc4)c4ccc(OC)cc4)O3)c(=O)[nH]2)cc1 (centres undefined)"
endpoint_result = "148 to 156 °C"


Turning to the following molecule.
Can you look up the measured melting point of "OCc1cc2c(F)cccc2nc1Cl" for me?
176 °C

* * *

Endpoint Label: melting point (°C)

[[record]]
item_smiles = "Cc1nc2scc(C)n2c(=O)c1CCN1CCC(=C(c2ccc(F)cc2)c2ccc(F)cc2)CC1"
endpoint_result = 184

[[record]]
item_smiles = "O=Cc1c(Cl)[nH]c2ccccc12"
endpoint_result = 227


* * *

Each item that follows carries a reported melting point.

The following compounds have reported results that may help.
[[record]]
compound = "CCCn1c(=O)c2[nH]c(/C=C/c3cccc(F)c3)nc2n(CCC)c1=O"
endpoint_result = "265 to 266 °C"

[[record]]
compound = "CCc1ccc(N2CCN(c3c(C)c(C)c4c(c3C)CC(C)(C)O4)CC2)cc1"
endpoint_result = "152 to 155 °C"

[[record]]
compound = "Cc1onc(-c2c(F)cccc2Cl)c1-c1csc(N)n1"
endpoint_result = "148 to 149 °C"

[[record]]
compound = "COc1ccc2c(c1)C(N(CC(=O)O)C(=O)C(C)CSC(C)=O)CC2 (stereo not given)"
endpoint_result = "106 to 110 °C"

[[record]]
compound = "Cc1cnc(N2CCNCC2)c2ccoc12"
endpoint_result = "112 °C"

[[record]]
compound = "CCN(CC)CCOc1ccc(N2C(=O)C(c3ccccc3)=C3CCCCC32)cc1 (stereo not given)"
endpoint_result = "81 °C"

[[record]]
compound = "CCCCc1c2c(nn1-c1ccccc1)c(Cl)nc1ccccc12"
endpoint_result = "239 to 243 °C"

[[record]]
compound = "O=C(N[C@@H](Cc1ccccc1)C(=O)Oc1cc(Cl)c(Cl)cc1Cl)OCc1ccccc1"
endpoint_result = "139 to 140 °C"


Can you look up the measured melting point of Cc1oc(-c2ccccc2Cl)nc1CCOc1ccc(CC2SC(=O)NC2=O)cn1 (stereo not given) for me?
176 to 177 °C

Can you look up the measured melting point of "CCN1CCNC(=O)c2ccc(Nc3ncc(Cl)c(Nc4ccccc4OCCN4CCOCC4)n3)cc21" for me?
223 to 225 °C

Can you look up the measured melting point of "CCCCS(=O)(=O)Cc1ccc(C(=O)Nc2ccc3cc(CN4CCCC4)cnc3c2C)cc1" for me?
199 °C

Can you look up the measured melting point of "O=C1c2c(O)cccc2C(C(=O)C2CCCCC2)c2cccc(O)c21" for me?
220 °C

Can you look up the measured melting point of "CS(=O)(=O)Nc1cc2occ(NS(C)(=O)=O)c(=O)c2cc1Oc1ccccc1" for me?
199 to 200 °C

Can you look up the measured melting point of "CCOC(=O)COc1ccc(SCc2cccc3[nH]c(-c4ccc(C(F)(F)F)cc4)cc23)cc1C" for me?
85 to 88 °C

Can you look up the measured melting point of "COc1ccccc1N1CCN(CCCCOc2ccc(-c3cn4ccsc4n3)cc2)CC1" for me?
128 to 130 °C

Can you look up the measured melting point of "N#CC(=NNCc1c(Cl)cc(C(F)(F)F)cc1Cl)c1ccc(C#N)cc1" for me?
92 to 93 °C

Can you look up the measured melting point of "CC(=O)SCc1ccccc1CCC(=O)Nc1cccc(C(=O)OCCBr)c1" for me?
85 to 88 °C

Can you look up the measured melting point of "O=C(Nc1ccc(F)cc1)NC1CC1" for me?
205 °C

Can you look up the measured melting point of "CCCCc1nc2cccc(C(=O)OCC)c2n1Cc1ccc(-c2ccccc2-c2nnn[nH]2)cc1" for me?
138 to 139 °C

Can you look up the measured melting point of "CCCOc1ccc2[nH]c3c([N+](=O)[O-])ccc(Cl)c3c(=O)c2c1" for me?
174 to 175 °C

* * *

Each item that follows carries a reported melting point.

The following compounds have reported results that may help.
[[record]]
compound = "Cc1nn(C)c(=O)n1-c1ccccc1COc1ccn(-c2ccc(Cl)cc2)n1"
endpoint_result = "107 to 108 °C"

[[record]]
compound = "O=C1c2cccc(NCCO)c2OC12CC2"
endpoint_result = "74 to 77 °C"

[[record]]
compound = "CC(=O)Cc1ccc2c(c1)Cc1cccnc1O2"
endpoint_result = "124 to 125 °C"

[[record]]
compound = "COc1ccc(C2(O)CCN(CC3CN(c4ccccc4)C(=O)O3)CC2)cc1 (stereo unspecified)"
endpoint_result = "121 to 122 °C"

[[record]]
compound = "COc1ccc2[nH]c(C(=O)Nc3ccc(CCCN(C)Cc4ccc(OC)c(OC)c4)cc3)cc2c1"
endpoint_result = "80 °C"

[[record]]
compound = "COc1ccc(-c2[nH]nc3c2C(=O)c2c(NC(=O)Cc4ccc(OC)c(OC)c4)cccc2-3)cc1"
endpoint_result = "> 300 °C"


Can you look up the measured melting point of "Oc1ccc(-c2ncc3ncc(-c4ccsc4)cc3n2)cc1" for me?
248 to 250 °C

Can you look up the measured melting point of "CCCCc1nn(C(F)(F)F)c(C(=O)O)c1Cc1ccc(C2(C(=O)O)CC=CC2)s1" for me?
134 to 135 °C

Can you look up the measured melting point of "CNc1cc(NS(=O)(=O)c2ccc(N)cc2)nc(N(C)C)n1" for me?
253 to 254 °C

Can you look up the measured melting point of "FC(F)(F)c1cc(-c2ccc(Cl)c(Cl)c2)nc2c(-c3nc(Nc4ccccn4)no3)cnn12" for me?
289 °C

Can you look up the measured melting point of CN1C(=O)C(O)(c2ccccc2)c2cccc(Cl)c21 (stereo unspecified) for me?
125 to 127 °C

Can you look up the measured melting point of CC12CC(C(F)F)C3C4CCC(=O)C=C4CCC3C1CCC2=O (stereo unspecified) for me?
149 to 151 °C

Can you look up the measured melting point of "COC(=O)CCNc1c(C#N)cnn1-c1c(Cl)cc(C(F)(F)F)cc1Cl" for me?
171 to 173 °C

Can you look up the measured melting point of "CCOC(=O)Cn1c(-c2cc3c(cc2[N+](=O)[O-])OCO3)nc2ccccc21" for me?
136 to 138 °C

Can you look up the measured melting point of "CCOCc1nc2c(N)nc(C)c(C)c2n1CCCON=C(C)C" for me?
123 to 125 °C

Can you look up the measured melting point of "CCOC(=O)[C@H](Cc1ccc([N+](=O)[O-])cc1)NC(=O)c1ccccc1" for me?
99 to 101 °C

Can you look up the measured melting point of CN1C2CCC1CC(c1c[nH]c3cc(F)ccc13)C2 (stereo unspecified) for me?
168 to 169 °C

Can you look up the measured melting point of C#CC(C)OC(=O)c1cccc2ccccc12 (stereo unspecified) for me?
66 to 68 °C

Can you look up the measured melting point of "Oc1cccc2c1ccn2CCOCCC(c1ccccc1)c1ccccc1" for me?
107 to 109 °C

Can you look up the measured melting point of "CC(C)(C)c1ccc([N+](=O)[O-])c(C(=O)O)c1" for me?
137 to 139 °C

Source listed as a melting point compilation (Tetko et al.; mined from patent text by program, amines drawn as free bases though some values may be those of a salt).
